Each entry below lists one item and its recorded max activation value.
system tested: Nuclear receptor subfamily 1 group I member 2 (Rattus norvegicus) (UniProt Q9R1A7)
Sequence (Q9R1A7 whole entry, looked up): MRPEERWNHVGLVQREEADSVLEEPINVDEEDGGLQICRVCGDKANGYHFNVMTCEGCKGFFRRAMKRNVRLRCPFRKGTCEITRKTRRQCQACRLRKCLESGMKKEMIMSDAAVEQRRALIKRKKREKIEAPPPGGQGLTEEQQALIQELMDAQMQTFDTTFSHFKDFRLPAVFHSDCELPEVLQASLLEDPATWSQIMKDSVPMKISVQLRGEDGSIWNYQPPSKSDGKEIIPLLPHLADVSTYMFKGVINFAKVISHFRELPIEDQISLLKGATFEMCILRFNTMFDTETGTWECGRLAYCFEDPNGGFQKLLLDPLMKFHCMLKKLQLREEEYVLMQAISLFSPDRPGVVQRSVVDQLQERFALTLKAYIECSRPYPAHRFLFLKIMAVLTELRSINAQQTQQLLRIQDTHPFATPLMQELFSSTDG
test description: Rat pregnane X receptor (rPXR) activation by small molecules, qHTS assay (AID 1346983); note: % is set by controls: 0 for no effect and ±100 for the full control effect; nearly all actives have a fitted effect of over 20% in size
condition label: rPXR luciferase reporter cells, One-Glo luminescence, 24 h; hits give high values
Inconclusive results are not listed.
quantity measured: max activation (%)

| molecule | quantity measured | meas value |
| --- | --- | --- |
| S=P(N1CC1)(N1CC1)N1CC1 | max activation | -4.01 |
| CNC(=O)c1cc(Oc2ccc(NC(=O)Nc3ccc(Cl)c(C(F)(F)F)c3)cc2)ccn1 | max activation | -24.5 |
| COc1cc(C(=O)NS(=O)(=O)c2ccccc2C)ccc1Cc1cn(C)c2ccc(NC(=O)OC3CCCC3)cc12 | max activation | -0.0293 |
| NCCCC(O)(P(=O)(O)O)P(=O)(O)O | max activation | -1.25 |
| CC(C)N=C(N)/N=C(\N)Nc1ccc(Cl)cc1 | max activation | -16.8 |
| CCCN(CCc1cccs1)[C@H]1CCc2c(O)cccc2C1 | max activation | -1.95 |
| CO[C@H]1C=CO[C@@]2(C)Oc3c(C)c(O)c4c(O)c(cc(O)c4c3C2=O)NC(=O)/C(C)=C\C=C/[C@H](C)[C@H](O)[C@@H](C)[C@@H](O)[C@@H](C)[C@H](OC(C)=O)[C@@H]1C | max activation | -1.49 |
| C[C@@]12C(=O)OC(=O)[C@]1(C)C1CCC2O1 | max activation | -13 |
| CN1[C@@H]2CC[C@H]1CC(OC(=O)C(CO)c1ccccc1)C2 (some centres not stated) | max activation | -0.936 |
| CCCCN(CCCC)CCC(O)c1cc2c(Cl)cc(Cl)cc2c2cc(C(F)(F)F)ccc12 (configuration not stated) | max activation | -2.62 |
| COc1ccccc1OCCNCC(O)COc1cccc2[nH]c3ccccc3c12 (configuration not stated) | max activation | 7.65 |
| C=C(c1ccc(C(=O)O)cc1)c1cc2c(cc1C)C(C)(C)CCC2(C)C | max activation | -18.2 |
| CN(Cc1cc(Br)cc(Br)c1N)C1CCCCC1 | max activation | -3.03 |
| CCN(CC)CCOc1ccc(C(O)(Cc2ccc(Cl)cc2)c2ccc(C)cc2)cc1 (configuration not stated) | max activation | -4.47 |
| Nc1ncnc2c1ncn2[C@@H]1O[C@H](COP(=O)(O)O)[C@@H](O)[C@H]1O | max activation | -2.61 |
| Cc1c(C)n(Cc2ccccc2)c2ccc(C(=O)OCCN(C)C)cc12 | max activation | 1.71 |
| Oc1c(Br)cc(Br)c2cccnc12 | max activation | -2.52 |
| CCOC(=O)[C@@](C)(N)Cc1ccc(O)c(O)c1 | max activation | -0.299 |
| CC(NCCC(c1ccccc1)c1ccccc1)c1ccccc1 (configuration not stated) | max activation | -19.7 |
| CCCCOc1ccc(C(=O)CCN2CCCCC2)cc1 | max activation | -1.67 |
| CNCC[C@H](Oc1cccc2ccccc12)c1cccs1 | max activation | -8.93 |
| C/C=C/C=N/NC(=O)c1ccncc1 | max activation | -3.54 |
